test: Relative potency expressed in percent to that of neurotensin was measured using rat stomach strips assay; type: functional

{"structure": "CC[C@H](C)[C@H](NC(=O)[C@H](C)NC(=O)[C@@H]1CCCN1C(=O)[C@H](CCCN=C(N)N)NC(=O)[C@H](CCCN=C(N)N)NC(=O)[C@@H]1CCCN1C(=O)[C@H](CCCCN)NC(=O)[C@H](CC(N)=O)NC(=O)[C@H](CCC(=O)O)NC(=O)[C@H](Cc1ccc(O)cc1)NC(=O)[C@H](CC(C)C)NC(=O)[C@@H]1CCC(=O)N1)C(=O)N[C@@H](CC(C)C)C(=O)O", "relation.sign": "=", "Relative potency / %": 0.01}
{"structure": "CC[C@H](C)[C@H](NC(=O)[C@H](Cc1ccc(O)cc1)NC(=O)[C@@H]1CCCN1C(=O)[C@H](CCCN=C(N)N)NC(=O)[C@H](CCCN=C(N)N)NC(=O)[C@@H]1CCCN1C(=O)[C@H](CCCCN)NC(=O)[C@H](CC(N)=O)NC(=O)[C@H](CCC(=O)O)NC(=O)[C@H](Cc1ccc(O)cc1)NC(=O)[C@H](CC(C)C)NC(=O)[C@@H]1CCC(=O)N1)C(=O)O", "relation.sign": "=", "Relative potency / %": 0.65}
{"structure": "CC[C@H](C)[C@H](NC(=O)[C@H](Cc1ccc(O)cc1)NC(=O)[C@@H]1CCCN1C(=O)[C@H](CCCNC(=N)N)NC(=O)[C@@H](N)CCCNC(=N)N)C(=O)N[C@@H](CC(C)C)C(=O)O", "relation.sign": "=", "Relative potency / %": 69}
{"structure": "CC(C)C[C@H](NC(=O)[C@@H]1CCC(=O)N1)C(=O)N[C@@H](Cc1ccc(O)cc1)C(=O)N[C@@H](CCC(=O)O)C(=O)N[C@@H](CC(N)=O)C(=O)N[C@@H](CCCCN)C(=O)N1CCC[C@H]1C(=O)N[C@@H](CCCN=C(N)N)C(=O)N[C@@H](CCCN=C(N)N)C(=O)N1CCC[C@H]1C(=O)N[C@@H](Cc1ccc(O)cc1)C(=O)O", "relation.sign": "<", "Relative potency / %": 0.01}

These entries and their values trace back to ChEMBL document CHEMBL1121808.
